Assay system: RSV postfusion F (postF), F ΔFP (Respiratory syncytial virus, UniProt P03420 26-513)
Assay method text: BLI, IgG on anti-human IgG sensor, 100 nM antigen
The following binders are listed with their measured Kd values.
Property: Kd

INSERT INTO results (binder, value_measured) VALUES
  ('ADI-41778 (antibody, V domains shown) VH: QVQLVESGGGQGQPGRSLRLSCAASGFTFDDYAMHWVRQVPGKGLEWVSGINWNSGYIGYADSVKGRFTISRDNAKNSLYLQMNSLRAEDTALYYCAKANNPIDSSGYNRGFDTWGQGTLVTVSS VL: QSALTQPRSVSGSPGQSVTISCTGTSSDVGGYNYVSWYQQHPGKAPKLMIYDVNKRPSGVPDRFSGSKSDNTASLTISGLQAEDESDYFCCSYAGTYTWVFGGGTKVTVL', '0.504 nM'),
  ('ADI-41554 (antibody, V domains shown, also called Ab 836; Antibody Number 836) VH: EVQLVESGGGLVQPGGSLRLSCAASGFTFSSYPMNWVRQGPGKGLEWVSSISSSGASPYYADSVKGRFTISRDNSKNTLYLQMNSLRADDTAVYYCAREDYYYYYMDVWGKGTTVTVSS VL: ETTLTQSPSTLSASVGDRVTITCRASESISSWLAWYQQKPGKAPKLLIFKASTVQSGVPSRFSGSGSGTEFTLTISSLQPDDFATYYCQQYNSYLLTFGGGTKVEIK', '1.07 nM'),
  ('ADI-41794 (antibody, V domains shown) VH: EVQLQQWGAGLLKPSETLSLTCAVYGGSFSGYYWSWIRQPPGKGLEWIGEINHSGSTNYNPSLKSRVTISVDTSKNQFSLKLSSVTAADTAVYYCARGTRTIVYCDGDCYQPWAYHYYGMDVWGQGTTVTVSS VL: QSVVTQEPSVSAAPGQKVTISCSGGSSNIGNNYVSWYQHLPGTAPKLLIYDNDKRPSGIPDRFSGSKSGTSATLGITGLQTGDEADYYCGTWDSSLSAVVFGGGTKLTVL', '3.01 nM'),
  ('ADI-41570 (antibody, V domains shown, also called Ab 848; Antibody Number 848) VH: QVQLVQSGAEVKKPGSSVKVSCMASGGTFSNSAINWVRQAPGQGLEWMGGTIPIFGAANYAQRFQARVTITADKSTSTAYMELTSLRSDDTAVYYCVRTPHRSSDHIWGSYRYFDSWGQGTLVTVSS VL: QSVVTQEPSVSAAPGQKITISCSGSTSNIGINYVSWYQQFPGTAPKLLIYDNDKRPSGIPDRFSGSKSGTSATLGITGLQAGDEADYYCGTWDSSLSAGHIFGGGTKVTVL', '1.12 nM'),
  ('ADI-41579 (antibody, V domains shown) VH: QVQLVESGAEARKPGSSVKVSCKLSGGTFSTDPISWVRQAPGQGLEWMGRIIPLLGIANYAQKFQGRVTIIADKSTSTVYMELRNLRFEDTAVYFCARRGDGYYGMDVWGQGTTVTVSS VL: QSVLTQPASVSGSPGQSITISCTGTSNDIGGYDYVSWYQQHPGKAPKLMIYDVHNRPSGVSNRFSGSKSGNTASLTISGLQAEDEADYYCSSFSDSGNLYVFGTGTKLTVL', '0.36 nM');
